# ASSAY COMMENT: qHTS assay for small molecule activators of the nuclear factor-kappa B (NF-kB) signaling pathway (AID 651749); further: % of control where 0% means no effect
# PROTOCOL CONDITIONS: NF-kB-bla ME-180 cells, beta-lactamase FRET ratio, 16 h; stronger effect = higher value
Inconclusive results are not listed.
ENDPOINT NAME: activation (%)
# unit: % | format: bare number

response.value for OCC(CBr)(CBr)CBr (field: activation) = 0.264

response.value for O=C(O)/C=C/c1ccc(/C=C/C(=O)O)cc1 (field: activation) = -0.449

response.value for CCN(CC)c1ccc(N)cc1 (field: activation) = 0.867

response.value for O=c1[nH]ncc2ccccc12 (field: activation) = 0.114

response.value for Nc1ccc(N=Nc2ccccc2)c(N)c1 (field: activation) = -1.7

###

# STUDY SYSTEM: Peroxisome proliferator-activated receptor alpha (Homo sapiens) (UniProt Q07869)
# Sequence (Q07869 whole entry, looked up): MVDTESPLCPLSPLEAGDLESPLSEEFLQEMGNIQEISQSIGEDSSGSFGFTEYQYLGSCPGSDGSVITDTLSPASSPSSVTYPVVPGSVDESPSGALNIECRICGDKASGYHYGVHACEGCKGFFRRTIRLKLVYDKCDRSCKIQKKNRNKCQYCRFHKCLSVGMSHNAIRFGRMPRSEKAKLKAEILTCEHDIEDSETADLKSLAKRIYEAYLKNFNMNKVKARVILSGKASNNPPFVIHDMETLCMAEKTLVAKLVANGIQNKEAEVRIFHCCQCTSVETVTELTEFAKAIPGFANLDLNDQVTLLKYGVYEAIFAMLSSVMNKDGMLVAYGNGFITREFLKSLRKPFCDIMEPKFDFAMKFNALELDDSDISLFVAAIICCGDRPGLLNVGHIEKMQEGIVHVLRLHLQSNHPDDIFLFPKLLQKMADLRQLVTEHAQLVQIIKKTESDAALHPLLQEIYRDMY
# ASSAY COMMENT: qHTS assay for small molecule agonists of the peroxisome proliferator-activated receptor alpha (PPARalpha) signaling pathway (AID 651778); further: % of control where 0% means no effect
# PROTOCOL CONDITIONS: PathHunter PPARalpha complementation, chemiluminescence, 6 h; stronger effect = higher value
ENDPOINT NAME: max response (%)
# unit: % | format: bare number

response.value for O=[N+]([O-])c1ccc(F)cc1F (field: max response) = -5.98

response.value for Cc1cc2nc(N)sc2cc1C (field: max response) = -4.39

response.value for c1ccc(COCc2ccccc2)cc1 (field: max response) = -3.88

response.value for C=CC(C)(O)CCCC(C)CCCC(C)CCCC(C)C (centres undefined) (field: max response) = 2.41

###

# ASSAY COMMENT: Cell Viability - N2a (AID 540);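 further: cells exposed to compound for 40 h at 37 °C; plate controls were DMSO alone for no effect and tamoxifen control for full effect; nearly all actives have a fitted effect of over 45% in size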
# PROTOCOL CONDITIONS: N2a mouse neuroblastoma cell viability; at 92.2 µM (top of the series)
Records with an inconclusive call do not appear.
For each entry below, report its activity change, negative = cytotoxicity value.
# unit: % | format: bare number

response.value for CCCCC(CC)COC(=O)COc1ccc(Cl)cc1Cl (centres undefined) (field: activity change, negative = cytotoxicity) = 1.51

response.value for Nc1ccc2c(c1)C(=O)c1ccccc1C2=O (field: activity change, negative = cytotoxicity) = -27.2

response.value for O=[N+]([O-])c1cccc(I)c1 (field: activity change, negative = cytotoxicity) = -10.4

response.value for c1ccc(CSCc2ccccc2)cc1 (field: activity change, negative = cytotoxicity) = -17.4

###

# ASSAY COMMENT: MultiTox-Fluor Cytotoxicity Assay - LYMP1-003 - Live Cells (AID 962);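 further: cells exposed to compound for 16 hours at 37 °C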
# PROTOCOL CONDITIONS: LYMP1-003 lymphoblastoid cells, MultiTox-Fluor live-cell protease fluorescence; series mostly up to 92.2 µM
The source made the active and inactive calls. Calls follow the shape of the dose curve; as a rule, active = well fitted cell-killing curve with a large enough effect; inconclusive = small, poorly fitted or top-dose-only effect; inactive = flat fitted curve, though single readings scatter.
Reply using exactly one outcome from Y = active, N = inactive

Request: Identify the outcome logged in this assay for the molecule shown: CCN(CC)c1ccc(N)cc1
Result: N

Request: Identify the outcome logged in this assay for the molecule shown: CC(=O)OCc1ccc2c(c1)OCO2
Result: N

Request: Identify the outcome logged in this assay for the molecule shown: CN(C)c1ccc(Cc2ccc(N(C)C)cc2)cc1
Result: N

Request: Identify the outcome logged in this assay for the molecule shown: S=C(NC1CCCCC1)NC1CCCCC1
Result: N

Request: Identify the outcome logged in this assay for the molecule shown: Cc1cccnc1
Result: N

Request: Identify the outcome logged in this assay for the molecule shown: COc1ccc([N+](=O)[O-])cc1N
Result: N

Request: Identify the outcome logged in this assay for the molecule shown: Nc1cnn([C@@H]2O[C@H](CO)[C@@H](O)[C@H]2O)c(=O)n1
Result: N

Request: Identify the outcome logged in this assay for the molecule shown: Brc1cc(Oc2cc(Br)c(Br)c(Br)c2Br)c(Br)c(Br)c1Br
Result: N

Request: Identify the outcome logged in this assay for the molecule shown: Cc1cc(-c2ccc(N=Nc3cc(S(=O)(=O)O)c4ccccc4c3N)c(C)c2)ccc1N=Nc1cc(S(=O)(=O)O)c2ccccc2c1N
Result: N

Request: Identify the outcome logged in this assay for the molecule shown: C=CC(=O)CC
Result: N

Request: Identify the outcome logged in this assay for the molecule shown: C[Si](C)(C)Cl
Result: N

Request: Identify the outcome logged in this assay for the molecule shown: Cc1ccc(O)c(N)c1
Result: N

Request: Identify the outcome logged in this assay for the molecule shown: Cc1ccccc1OCC1CO1 (stereo not drawn)
Result: N

Request: Identify the outcome logged in this assay for the molecule shown: O=[N+]([O-])c1ccc(F)cc1F
Result: N

Request: Identify the outcome logged in this assay for the molecule shown: Clc1nc2ccccc2nc1Cl
Result: N

Request: Identify the outcome logged in this assay for the molecule shown: CCc1ccc(C(c2ccc(CC)cc2)C(Cl)Cl)cc1
Result: N

Request: Identify the outcome logged in this assay for the molecule shown: O=C(O)/C=C/c1ccc(/C=C/C(=O)O)cc1
Result: N

Request: Identify the outcome logged in this assay for the molecule shown: CC(=O)OC(C(=O)c1ccccc1)c1ccccc1 (stereo not drawn)
Result: N

Request: Identify the outcome logged in this assay for the molecule shown: CCCCNCC
Result: N

Request: Identify the outcome logged in this assay for the molecule shown: C=C1CC[C@H](O)C/C1=C/C=C1\CCC[C@]2(C)[C@@H]([C@H](C)CCCC(C)C)CC[C@@H]12
Result: Y

Request: Identify the outcome logged in this assay for the molecule shown: CC(C)(C)C(=O)C1C(=O)c2ccccc2C1=O
Result: N

Request: Identify the outcome logged in this assay for the molecule shown: COc1cc(-c2ccc(N=C=O)c(OC)c2)ccc1N=C=O
Result: N

Request: Identify the outcome logged in this assay for the molecule shown: C=Cc1cccc(C)c1
Result: N

Request: Identify the outcome logged in this assay for the molecule shown: CC(C)OCC1CO1 (stereo not drawn)
Result: N

Request: Identify the outcome logged in this assay for the molecule shown: CCCC(=O)OC(=O)CCC
Result: N

Request: Identify the outcome logged in this assay for the molecule shown: CCCCCCc1ccc(-c2ccc(C#N)cc2)cc1
Result: N

Request: Identify the outcome logged in this assay for the molecule shown: CCOC(=O)C1OC1c1ccccc1 (stereo not drawn)
Result: N

Request: Identify the outcome logged in this assay for the molecule shown: CC(/C=C/C=C(C)/C=C/C(=O)O)=C\C=C\C=C(C)\C=C\C=C(C)\C=C\C(=O)O
Result: N

Request: Identify the outcome logged in this assay for the molecule shown: CCOc1ccc2nc(N)sc2c1
Result: N

Request: Identify the outcome logged in this assay for the molecule shown: C/C=C/C=C/C=O
Result: N

Request: Identify the outcome logged in this assay for the molecule shown: NC(=O)c1ccc([N+](=O)[O-])cc1
Result: N

Request: Identify the outcome logged in this assay for the molecule shown: C=C(C#N)C(=O)OCC
Result: N

Request: Identify the outcome logged in this assay for the molecule shown: Cc1ccc(N)cc1[N+](=O)[O-]
Result: N

Request: Identify the outcome logged in this assay for the molecule shown: O=C(Cl)c1ccc([N+](=O)[O-])cc1
Result: N

Request: Identify the outcome logged in this assay for the molecule shown: CCCCC(CC)COC(=O)COc1ccc(Cl)cc1Cl (stereo not drawn)
Result: N

Request: Identify the outcome logged in this assay for the molecule shown: CC/C=C/C/C=C/C/C=C/CCCCCCCC(=O)OCC
Result: N

Request: Identify the outcome logged in this assay for the molecule shown: c1ccc(SCCSc2ccccc2)cc1
Result: N

Request: Identify the outcome logged in this assay for the molecule shown: CCCCC(CC)COP(=O)(OCC(CC)CCCC)OCC(CC)CCCC (stereo not drawn)
Result: N
